Cited source for all entries: PubChem BioAssay (NCI)

# experiment summary: NCI Yeast Anticancer Drug Screen. Data for the bub3 strain (AID 167)
# experimental setup: S. cerevisiae bub3 mutant strain, at 50.0 µM, active compounds read high
About 79,000 compounds went through this panel and 15% of them were active in at least one assay; those are over-represented in the sample as a whole.
endpoint name: growth inhibition (%)
Only the number, expressed in %, is required.

Form: compound = COC(=O)C(C)CC(C)C(=O)OC (configuration not stated) ; growth inhibition = -2.95

Form: compound = Cc1ccc(Cc2n[nH]c(=O)n2/N=C\CC/C=N\n2c(Cc3ccc(C)cc3)n[nH]c2=O)cc1 ; growth inhibition = -28.9

Form: compound = C/C(=C/c1c(C)c([N+](=O)[O-])c(C)c(C)c1[N+](=O)[O-])C(=O)O ; growth inhibition = 30.9

Form: compound = CCCNc1ncnc2c1ncn2C ; growth inhibition = 7.45

Form: compound = CC12O[C@H](c3ccccc3)[C@H](c3ccccc3)N1C(=O)C1(C(=O)OCc3ccccc3)CC12 (some centres not stated) ; growth inhibition = -7.05

Form: compound = NC(=O)Cc1ccncc1 ; growth inhibition = -2.7

Form: compound = N#CCN1CCOCC1 ; growth inhibition = 10.2

Form: compound = CCOC(=O)C(=O)SCC(NC(=O)OCc1ccccc1)C(=O)O (configuration not stated) ; growth inhibition = 7.75

Form: compound = CC(C)(N)C(=O)N[C@@H]1C(=O)N2[C@@H]1SC(C)(C)[C@@H]2C(=O)O ; growth inhibition = 5.9

Form: compound = COC(=O)C1=C(C)N(NC(N)=O)C2(N)N(NC(N)=O)C(C)=C(C(=O)OC)C12C#N (configuration not stated) ; growth inhibition = 2.55

Form: compound = CC(=O)OC1CC2(c3ccccc3)C(=O)c3ccccc3N2O1 (configuration not stated) ; growth inhibition = 10.2

Form: compound = CO/C=C(/C#N)S(=O)(=O)/C(C#N)=C/OC ; growth inhibition = 24.9
